target: NAMPT (Homo sapiens (Human), UniProt P43490); experiment: Assay 1: Biochemical Inhibition Assay (NAMPT enzymatic reaction, NMN quantified by mass spectrometry); details: read-out: Biochemical (IC50)
Sequence (P43490 whole entry): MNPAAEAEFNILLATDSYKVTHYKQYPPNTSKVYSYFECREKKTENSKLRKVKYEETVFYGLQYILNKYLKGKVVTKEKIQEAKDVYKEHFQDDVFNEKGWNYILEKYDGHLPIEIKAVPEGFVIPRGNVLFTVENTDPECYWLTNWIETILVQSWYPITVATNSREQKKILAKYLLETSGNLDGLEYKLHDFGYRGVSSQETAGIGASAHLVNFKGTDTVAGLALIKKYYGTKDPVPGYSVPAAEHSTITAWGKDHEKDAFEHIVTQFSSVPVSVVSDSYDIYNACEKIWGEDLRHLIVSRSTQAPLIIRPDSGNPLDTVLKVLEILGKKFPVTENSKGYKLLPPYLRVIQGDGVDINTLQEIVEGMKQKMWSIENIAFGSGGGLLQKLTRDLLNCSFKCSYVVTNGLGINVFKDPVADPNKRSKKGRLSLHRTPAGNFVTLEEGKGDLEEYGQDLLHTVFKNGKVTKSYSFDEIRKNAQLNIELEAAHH
reported property: pIC50
Give bare numbers, as −log10 of the molar value.

Provide pIC50 for all items below, preserving their order.
1. O=C(NCc1ccc(S(=O)(=O)N2CCC3(CCCO3)C2)cc1)c1ccc2nccn2c1 (stereo not shown)
2. N[C@H]1C[C@H]2CC[C@@H](C1)N2S(=O)(=O)c1ccc(CNC(=O)c2cc3ccncc3s2)cc1
3. NC1CCN(S(=O)(=O)c2ccc(CNC(=O)c3cc4ccncc4s3)cc2)CC1
4. O=C(NCc1ccc(S(=O)(=O)C2CCN(C3CCOCC3)CC2)cc1)c1cnc2nccn2c1
5. O=C(NCc1ccc(S(=O)(=O)N2CC3CC(F)(F)CC3C2)cc1)c1cc2ccncc2o1 (stereo not shown)
6. CC(C)N1CCC(S(=O)(=O)c2ccc(CNC(=O)c3ccc4nccn4c3)cc2)CC1

Result ::
1: 8.07; 2: 8.24; 3: 7.95; 4: 8.40; 5: 7.78; 6: 7.05

---

target: NAMPT (Homo sapiens (Human), UniProt P43490); assay: Assay 1: Biochemical Inhibition Assay (NAMPT enzymatic reaction, NMN quantified by mass spectrometry); conditions: read-out: Biochemical (IC50);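 note: recombinant His-tagged human NAMPT preincubated with compound 15 min, then reacted 30 min at rt with 1 µM NAM, 100 µM PRPP, 2.5 mM ATP, NMN product read by RapidFire MS, normalized to L-Cystathionine internal standard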
reported property: pIC50
Numbers only, as −log10 of the molar value.

CC(C)CN1CCC([S+]([O-])c2ccc(CNC(=O)c3cc4cnccc4[nH]3)cc2)CC1 (racemic) [Example 182]
7.58
O=C(NCc1ccc(S(=O)(=O)N2CCC3(CCCN3)C2)cc1)c1ccc2nccn2c1 (stereo not shown) [Example 257]
7.33
O=C(NCc1ccc([S+]([O-])C2CCN(C3CCOCC3)CC2)cc1)c1ccc2nccn2c1 (stereo not shown) [Example 384]
7.44
O=C(NCc1ccc(S(=O)(=O)N2CCC3(CCCNC3)CC2)cc1)c1ccc2nccn2c1 [Example 325]
7.59

List reported pIC50 for each of these molecules:
1. CC(=O)N1CCC(S(=O)(=O)c2ccc(CNC(=O)c3cnc4nccn4c3)cc2)CC1 [Example 229]
2. NC1CC2(CCN(S(=O)(=O)c3ccc(CNC(=O)c4ccc5nccn5c4)cc3)CC2)C1 [Example 323]
3. O=C(NCc1ccc(S(=O)(=O)N2CC3(CCCNC3)C2)cc1)c1ccc2nccn2c1 [Example 253]
4. CS(=O)(=O)N1CCC(S(=O)(=O)c2ccc(CNC(=O)c3cnc4[nH]ncc4c3)cc2)C1 (stereo not shown) [Example 354]
5. O=C(NCc1ccc(S(=O)(=O)N2CCOCC2)cc1)c1cnc2[nH]ncc2c1 [Example 9]
6. CC(C)(C)OC(=O)NC1CC2(CCN(S(=O)(=O)c3ccc(CNC(=O)c4ccc5nccn5c4)cc3)CC2)C1 [Example 127]
7. O=C(NCc1ccc(S(=O)(=O)N2CC(C3CCCNC3)c3ccccc32)cc1)c1ccc2nccn2c1 (stereo not shown) [Example 330]

Result ::
[8.29, 7.75, 7.56, 6.38, 6.98, 7.84, 7.65]

I'm hoping you can list pIC50 for every molecule here, please.
1. O=C(NCc1ccc(S(=O)(=O)N2CC3CC2CO3)cc1)c1cc2ccncc2o1 (stereo not shown) [Example 304]
2. O=C(NCc1ccc(S(=O)(=O)[C@H]2CCOC2)cc1)c1cc2ccncc2o1 [Example 230]
3. O=C(NCc1ccc(S(=O)(=O)N2CC[C@H]3C[C@H]32)cc1)c1ccc2nccn2c1 (racemic) [Example 166]
4. O=C(NCc1ccc(S(=O)(=O)N2CC3CCC(C2)O3)cc1)c1cnc2[nH]ncc2c1 [Example 27]
5. O=C(NCc1ccc([S+]([O-])C2CCN(CC(F)(F)F)CC2)cc1)c1cc2ccncc2o1 (stereo not shown) [Example 356]

Result ::
1. 7.19
2. 7.13
3. 7.76
4. 6.85
5. 7.87
